- Tested on: HEK-293T
- experiment.notes: Incucyte cell viability with HEK293T; further: filed as whole numbers so only -1 and 0 and 1 occur
- Format: toxicity, cell-based
- experimental.context: human, 18 h, 10 µM, compound concentration 10 uM, replicate number 1, timepoint 18 hours
measured.quantity: Growth Rate
Respond numerically, and do not add a unit to the figure.

Any idea what Growth Rate was measured for Cc1c(NC(=O)c2cc(C(N)=O)nc3cc(F)ccc23)c(C(F)(F)F)nn1Cc1ccc(C(C)(C)C)cc1 ?
0

// repeat for CCCNS(=O)(=O)Nc1ncnc(OCCOc2ncc(Br)cn2)c1-c1ccc(Br)cc1 and report
0

// repeat for CN(C)C(=O)c1cc2cnc(Nc3ccc(N4CCNCC4)cn3)nc2n1C1CCCC1 and report
1

// repeat for O=c1ccn([C@@H]2O[C@H](COP(=O)([O-])OP(=O)([O-])O)[C@@H](O)[C@H]2O)c(=O)[nH]1.[Na+].[Na+] and report
1

// repeat for CCCc1c(OCCCOc2ccc(OCC(=O)O)cc2)ccc(C(C)=O)c1O and report
1

// repeat for CC(C)c1onc(-c2c(Cl)cccc2Cl)c1COc1ccc(/C=C/c2cccc(C(=O)O)c2)c(Cl)c1 and report
0

// repeat for C[C@]12CCC(=O)C=C1CC[C@@H]1[C@@H]2[C@@H](O)C[C@]2(C=O)[C@@H](C(=O)CO)CC[C@@H]12 and report
1

// repeat for Cc1cc([C@@H](C)Nc2cccc(-c3cc(C)c(C(=O)N[C@@H](C)C(=O)O)c(C)c3)c2)ccc1Cl and report
0

* * *

Kindly state Population Mitochondria Different-Phenotype (%) for each of the entries shown.
- Test system: Fibroblast
- experiment.notes: Multiplex assay against human fibroblast
- Type: toxicity, cell-based
- experimental.context: 12 h, 10 µM, compound concentration 10 uM, replicate 1
Reply numerically in %, unit not repeated.

Any idea what Population Mitochondria Different-Phenotype (%) was measured for COc1cc(N2CCN(C)CC2)ccc1Nc1ncc2c(n1)N(C)c1ccccc1C(=O)N2C ?
35

// repeat for CN1CCC(=C2c3ccccc3CC(=O)c3sccc32)CC1.O=C(O)/C=C/C(=O)O [KETOTIFEN FUMARATE] and report
23

// repeat for O=C1NC(=O)C(c2cnc3ccccn23)=C1c1cn2c3c(cc(F)cc13)CN(C(=O)N1CCCCC1)CC2 [LY-2090314] and report
26

// repeat for CCCn1c(=O)c2[nH]c(-c3cnn(Cc4cccc(C(F)(F)F)c4)c3)nc2n(CC)c1=O [GS 6201] and report
17

// repeat for CCOc1cc2ncc(C#N)c(Nc3ccc(OCc4ccccn4)c(Cl)c3)c2cc1NC(=O)/C=C/CN(C)C [NERATINIB] and report
1

* * *

- Tested on: HEK-293T
- experiment.notes: Multiplex assay against HEK293T
- Assay type: toxicity, cell-based
- experimental.context: human, 48 h, 10 µM, compound concentration 10 uM, replicate 1
measured.quantity: Population Mitochondria Different-Phenotype (%)
Reply numerically in %, unit not repeated.

Any idea what Population Mitochondria Different-Phenotype (%) was measured for S=C(NCCCc1c[nH]cn1)NCCCN(Cc1ccc(Cl)c(Cl)c1)c1ccc(Br)cn1 ?
100

// repeat for CCCS(=O)(=O)c1nc(NC2CC2)cc(-c2ccc3c(ccn3C3CC(C)(C)NC(C)(C)C3)c2)n1 and report
0

// repeat for CCOc1cc2ncc(C#N)c(Nc3ccc(OCc4ccccn4)c(Cl)c3)c2cc1NC(=O)/C=C/CN(C)C and report
15

// repeat for CN1CCC(=C2c3ccccc3CC(=O)c3sccc32)CC1.O=C(O)/C=C/C(=O)O [KETOTIFEN FUMARATE] and report
93

// repeat for CCc1cccc(CC)c1NC(=O)c1nn(C)c2c1CCc1cnc(Nc3ccc(C(=O)NC4CCN(C)CC4)cc3OC(F)(F)F)nc1-2 and report
94

// repeat for O=C1N/C(=N/c2ccccc2F)S/C1=C\c1ccc(C(=O)O)cc1 and report
19

// repeat for Cc1cc(C)c(S(=O)(=O)N(Cc2ccc(-c3cccc(S(C)(=O)=O)c3)cc2)Cc2ccc(C(F)(F)F)o2)c(C)c1 and report
57

* * *

- Test system: U2OS
- experiment.notes: Multiplex assay against U2OS
- Type: toxicity, cell-based
- experimental.context: human, 24 h, 1 µM, compound concentration 1 uM, replicate 2
Mark Fulfilled for Population Hoechst High Intensity Objects (%) under 9%, Not fulfilled if at or over.

Does the reported Population Hoechst High Intensity Objects (%) of O=C(Nc1ccc(-c2ccnc(Nc3ccc(N4CCOCC4)cc3)n2)cc1)[C@@H]1CCCN1 stay below 9%?
Fulfilled

// repeat for COc1ccc(-c2ccc3c(N4CCOCC4)nc(N4C[C@@H](C)O[C@@H](C)C4)nc3n2)cc1CO and report
Fulfilled

// repeat for COC(=N)c1nc2ccc3ncnc(Nc4ccc(OC)cc4F)c3c2s1 and report
Fulfilled

// repeat for O=C1NC(=O)C(c2cnc3ccccn23)=C1c1cn2c3c(cc(F)cc13)CN(C(=O)N1CCCCC1)CC2 and report
Not fulfilled

// repeat for CN1CCN(C(=O)C(C)(C)c2ccc(C(=O)Nc3cn4cc(-c5cc(C(C)(C)C)cc(C(C)(C)C)c5)ccc4n3)cc2)CC1 and report
Fulfilled

// repeat for CCOc1cc(C(=O)N2CCC(N3CCN(C)CC3)CC2)ccc1Nc1ncc2c(n1)N(C1CCCC1)c1ccccc1C(=O)N2C and report
Fulfilled

* * *

Kindly state Population Normal (%) for each of the entries shown.
- Test system: Fibroblast
- experiment.notes: Multiplex assay against human fibroblast
- Format: toxicity, cell-based
- experimental.context: 12 h, 1 µM, compound concentration 1 uM, replicate 2
Reply numerically in %, unit not repeated.

Any idea what Population Normal (%) was measured for CCN1CCN(c2ccc(Nc3cc(N(C)C(=O)Nc4c(Cl)c(OC)cc(OC)c4Cl)ncn3)cc2)CC1 ?
61

// repeat for Cc1ccc(C(=O)Nc2cccc(C(F)(F)F)c2)cc1Nc1nc(-c2cccnc2)nc2c1cnn2C and report
96

// repeat for CN1CCC(=C2c3ccccc3CC(=O)c3sccc32)CC1.O=C(O)/C=C/C(=O)O [KETOTIFEN FUMARATE] and report
94

// repeat for O=C(Nc1cccnn1)N1CCC(=Cc2cccc(Oc3ccc(C(F)(F)F)cn3)c2)CC1 and report
55

// repeat for Cc1cc(C)c(S(=O)(=O)N(Cc2ccc(-c3cccc(S(C)(=O)=O)c3)cc2)Cc2ccc(C(F)(F)F)o2)c(C)c1 and report
93

* * *

Kindly state Population Normal (%) for each of the entries shown.
- System: U2OS
- experiment.notes: Multiplex assay against U2OS
- Format: toxicity, cell-based
- experimental.context: human, 24 h, 10 µM, compound concentration 10 uM, replicate 2
Reply numerically in %, unit not repeated.

Any idea what Population Normal (%) was measured for CCc1cccc(CC)c1NC(=O)c1nn(C)c2c1CCc1cnc(Nc3ccc(N4CCN(C)CC4)cc3OC)nc1-2 ?
89

// repeat for CCn1c(=O)c(-c2ccc(-c3cncs3)cc2Cl)cc2cnc(Nc3ccc(N4CCN(C)CC4)cc3)nc21 and report
96

// repeat for Cc1ccc(C(=O)Nc2cccc(C(F)(F)F)c2)cc1Nc1nc(-c2cccnc2)nc2c1cnn2C and report
79

* * *

- Tested on: U2OS
- experiment.notes: Multiplex assay against U2OS
- Format: toxicity, cell-based
- experimental.context: human, 24 h, 1 µM, compound concentration 1 uM, replicate 1
Kindly state Population Mitotic Cells (%) for each of the entries shown.
Reply numerically in %, unit not repeated.

Any idea what Population Mitotic Cells (%) was measured for O=C(Nc1ccc(Cl)cc1)Nc1cccc(-c2cccc(N3CCCC3)n2)c1 ?
58

// repeat for CN1CCC(=C2c3ccccc3CC(=O)c3sccc32)CC1.O=C(O)/C=C/C(=O)O [KETOTIFEN FUMARATE] and report
52

// repeat for CCc1cccc(CC)c1NC(=O)c1nn(C)c2c1CCc1cnc(Nc3ccc(N4CCN(C)CC4)cc3OC)nc1-2 and report
5

// repeat for O=C(Nc1cccnn1)N1CCC(=Cc2cccc(Oc3ccc(C(F)(F)F)cn3)c2)CC1 and report
81

// repeat for CCNc1cc(N[C@H]2CC[C@H](O)CC2)nc(Nc2ccc3c(ccn3Cc3ccccc3)c2)n1 and report
66

// repeat for S=C(NCCCc1c[nH]cn1)NCCCN(Cc1ccc(Cl)c(Cl)c1)c1ccc(Br)cn1 and report
33

// repeat for Cl.Oc1ccc2c3c1O[C@H]1c4[nH]c5c(c4C[C@@]4(O)[C@@H](C2)N(CC2CC2)CC[C@]314)C[C@@]1(O)[C@H]2Cc3ccc(O)c4c3[C@@]1(CCN2CC1CC1)[C@H]5O4 and report
69

// repeat for O=C(Cc1ccc(-c2ccc(OCCN3CCOCC3)cc2)cn1)NCc1ccccc1 and report
65

* * *

Kindly state Total Cell Count for each of the entries shown.
- Test system: HEK-293T
- experiment.notes: Multiplex assay against HEK293T
- Type: toxicity, cell-based
- experimental.context: human, 24 h, 10 µM, compound concentration 10 uM, replicate 2
Respond numerically, and do not add a unit to the figure.

Any idea what Total Cell Count was measured for NC(=O)c1cccc(-c2cc(Nc3ccc(OC(F)(F)F)cc3)ncn2)c1 ?
1486

// repeat for COc1ccc(-c2ccc3c(N4CCOCC4)nc(N4C[C@@H](C)O[C@@H](C)C4)nc3n2)cc1CO and report
1535

// repeat for CN(C)C(=O)C(CCN1CCC(O)(c2ccc(Cl)cc2)CC1)(c1ccccc1)c1ccccc1.Cl [LOPERAMIDE HYDROCHLORIDE] and report
162

// repeat for CNC(=O)c1ccc(Nc2nc(OC3CCCC3)c3c(-c4ccc5nc(C)oc5c4)c[nH]c3n2)c(OC)c1 and report
1423

// repeat for COc1cc2ncnc(Nc3ccc(F)c(Cl)c3)c2cc1NC(=O)/C=C/CN1CCCCC1 [DACOMITINIB ANHYDROUS] and report
2468

// repeat for O=C(Nc1ccc(-n2nc(-c3cccnc3)cc2C(F)(F)F)cn1)c1ccc(-c2ccccc2)c(F)c1 and report
339

// repeat for CCN1CCN(Cc2ccc(Nc3ncc(F)c(-c4cc(F)c5nc(C)n(C(C)C)c5c4)n3)nc2)CC1.CS(=O)(=O)O and report
213

// repeat for Cc1ccc(C(=O)Nc2cccc(C(F)(F)F)c2)cc1Nc1nc(-c2cccnc2)nc2c1cnn2C and report
205
